subject.of.test: LNX1_1, Q8TBB1
Sequence (Q8TBB1 261-371): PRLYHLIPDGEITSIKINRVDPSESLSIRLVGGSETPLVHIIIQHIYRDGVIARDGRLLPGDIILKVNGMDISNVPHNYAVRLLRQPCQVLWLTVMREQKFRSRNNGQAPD
assay.comment: holdup assay
Design: key: below the threshold = too weak to quantify, mostly under pKd 3.1 to 4
conditions: plain residues with an end cap or a label only (N-terminal biotin on a linker: ttds)
attribute.measured: pKd

Study these solved cases before continuing.
NDPAWDETNL [ARHGEF7, Q14155;Q14155-1]; below the threshold
EMDRRPATVV [PLCB4, Q15147]; 4.01
RLPKIKETTV [FRMPD4, Q14CM0]; below the threshold
RPLPRKVSQL [DOCK4, Q8N1I0]; below the threshold
SGSRPSATVV [HPV73-E6, Q82005]; 3.74
SSLQSLETSV [ATP2B4, P23634]; 3.71
RHTTSTETAV [HPV30-E6, P36809]; below the threshold
SKPTRRETEV [HPV35-E6, P27228]; below the threshold
VDFPPKESSL [ACVR2A, P27037]; below the threshold
RLQRRRETQV [HPV18-E6, P06463]; below the threshold

State recorded pKd for all listed binders.
1. QRQARSETLV [HPV59-E6, Q81964]
2. FHPLGADSQV [SLC2A1, P11166]
3. KKYVDAETSL [SLC4A7, Q9Y6M7]
4. EVVHTPETSV [SLC16A3, O15427]
5. PVRVCEETSL [OTULIN, Q96BN8]
6. DKDPHSETAL [TMIGD1, Q6UXZ0]
7. PRVKPQRSKV [PPP1R13L, Q8WUF5]

Completion:
1: below the threshold; 2: below the threshold; 3: below the threshold; 4: below the threshold; 5: below the threshold; 6: below the threshold; 7: below the threshold
